# measurement_target: CYP3A4 (Homo sapiens, UniProt P08684)
# Sequence (P08684 whole entry): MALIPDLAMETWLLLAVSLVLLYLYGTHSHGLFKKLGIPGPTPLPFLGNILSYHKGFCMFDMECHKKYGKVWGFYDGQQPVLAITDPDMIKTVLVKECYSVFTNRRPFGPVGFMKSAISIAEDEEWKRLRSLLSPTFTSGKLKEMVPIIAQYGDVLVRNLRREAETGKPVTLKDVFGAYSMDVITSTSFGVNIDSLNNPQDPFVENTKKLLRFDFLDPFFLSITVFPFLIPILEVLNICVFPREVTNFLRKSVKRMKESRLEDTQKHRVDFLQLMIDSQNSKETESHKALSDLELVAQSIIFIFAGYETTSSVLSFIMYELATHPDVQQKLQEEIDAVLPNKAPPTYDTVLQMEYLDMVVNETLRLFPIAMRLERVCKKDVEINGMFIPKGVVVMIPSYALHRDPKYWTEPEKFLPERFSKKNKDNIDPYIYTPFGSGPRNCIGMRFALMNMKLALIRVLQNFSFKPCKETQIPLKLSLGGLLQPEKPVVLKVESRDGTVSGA
# method_notes: Human CYP inhibition in human liver microsomes
# Format: in vitro ADME
property_measured: IC50

1. Nc1nc(Nc2ccc(Cl)cc2)nn1S(=O)(=O)c1ccc2ccccc2c1 [Compound 1]	> 50 µM

====

# method_notes: Toxicity assay in TZM-bl cells
# Assay type: cell-based
# conditions_used: human, TZM-bl cells; Table 4, TZM-bl; read-out: CC50 (TZM)
property_measured: CC50 at 48 h

1. O=C1Nc2ccc(Cl)cc2[C@@](C#CC2CC2)(C(F)(F)F)O1	> 100 µM

====

# measurement_target: CYP3A4 (Homo sapiens, UniProt P08684)
# method_notes: Human CYP inhibition in human liver microsomes
# Format: in vitro ADME
# conditions_used: human liver microsomes, substrate midazolam; read-out: CYP inhibition IC50, 3A4
property_measured: IC50 (µM)

1) N#C/C=C/c1ccc2c(S(=O)(=O)n3nc(Nc4ccc(C#N)c(Cl)c4)nc3N)cccc2c1	31.3

# credit: patent US20250179033A1
